The origin of these recorded values is paper PMC5531494.

assay: PK in normal beagle dogs, IV and oral gavage; assay type: in vivo; details: female, plasma, Dog #2, PO fed, 1.28 mg/kg, dog vomited 10 min after dosing
experimentalEndpoint: AUC (µM·h)
Only the number, expressed in µM·h, is required.

Entry NS(=O)(=O)c1cccc2c1C(=O)C=C(Nc1cccnc1)C2=O ; AUC = 0.258

====

assay: PK in normal beagle dogs, IV and oral gavage; type: in vivo; settings: male, dog, plasma, po, 1.28 mg/kg, Dog #1, PO fed, read-out: F (oral bioavailability)
experimentalEndpoint: bioavailability (%)
Only the number, expressed in %, is required.

Entry NS(=O)(=O)c1cccc2c1C(=O)C=C(Nc1cccnc1)C2=O [LY5] ; bioavailability = 13.7

====

Test: PK in normal beagle dogs, IV and oral gavage
Type: in vivo
Conditions: male, plasma, Dog #1, PO w/ fast, 0.9 mg/kg
Procedure: LY5 was evaluated in two normal purpose-bred beagle dogs (female 8.8 kg; male 11.2 kg) receiving a single dose of 1mg/kg LY5 IV then orally by gavage 7 days later to establish the PK profile and assess the spectrum of clinical toxicities associated with LY5 administration. The oral dosing was repeated in the fed and fasted state. The starting dose was determined based on allometric scaling from the maximal tolerated dose studies performed in mice. […]
experimentalEndpoint: AUC (µM·h)
Only the number, expressed in µM·h, is required.

Entry NS(=O)(=O)c1cccc2c1C(=O)C=C(Nc1cccnc1)C2=O [LY5] ; AUC = 2.44

====

assay: PK in normal beagle dogs, oral capsules of LY5 powder; assay type: in vivo; conditions: male, plasma, Dog #1, 50mg oral capsule, fasted
experimentalEndpoint: Cmax (nM)
Only the number, expressed in nM, is required.

Entry NS(=O)(=O)c1cccc2c1C(=O)C=C(Nc1cccnc1)C2=O ; Cmax = 840

====

assay: PK in normal beagle dogs, oral capsules of LY5 powder; format: in vivo; conditions: female, plasma, Dog #2, 25 mg oral capsule, fasted, read-out: AUC inf-obs
experimentalEndpoint: AUC(0-inf) (µM·h)
Only the number, expressed in µM·h, is required.

Entry NS(=O)(=O)c1cccc2c1C(=O)C=C(Nc1cccnc1)C2=O [LY5] ; AUC(0-inf) = 2.53

====

experiment: Plasma PK profile in mice; assay type: in vivo; conditions: ICR, mouse, 5 mg/kg IP
experimentalEndpoint: AUC (µM·h)
Only the number, expressed in µM·h, is required.

Entry NS(=O)(=O)c1cccc2c1C(=O)C=C(Nc1cccnc1)C2=O ; AUC = 0.717

====

experiment: PK in normal beagle dogs, IV and oral gavage; type: in vivo; details: male, plasma, Dog #1, IV, 0.97 mg/kg
experimentalEndpoint: AUC (µM·h)
Only the number, expressed in µM·h, is required.

Entry NS(=O)(=O)c1cccc2c1C(=O)C=C(Nc1cccnc1)C2=O ; AUC = 5.1

====

assay: PK in normal beagle dogs, oral capsules of LY5 powder; assay type: in vivo; conditions: female, plasma, Dog #2, 50mg oral capsule, fasted
experimentalEndpoint: AUC(0-t) (µM·h)
Only the number, expressed in µM·h, is required.

Entry NS(=O)(=O)c1cccc2c1C(=O)C=C(Nc1cccnc1)C2=O ; AUC(0-t) = 5.93

====

test system: ES-7 cells; assay: Alamar Blue cell viability assay; type: cell-based; conditions: Homo sapiens, ES7; ES-7, 96 hours
experimentalEndpoint: pIC50
In plain terms, pIC50 is the concentration in mol/L turned into minus its base-10 logarithm.

Entry NS(=O)(=O)c1cccc2c1C(=O)C=C(Nc1cccnc1)C2=O ; pIC50 = 5.67

====

test system: RD cells; experiment: Alamar Blue cell viability assay; format: cell-based; details: Homo sapiens, 96 hours
experimentalEndpoint: pIC50
In plain terms, pIC50 is the concentration in mol/L turned into minus its base-10 logarithm.

The reported pIC50 value, RD cells, for NS(=O)(=O)c1cccc2c1C(=O)C=C(Nc1cccnc1)C2=O [LY5] reads 6.69

====

system: OS-17 cells; experiment: Alamar Blue cell viability assay; format: cell-based; details: Homo sapiens; OS-17, 96 hours
experimentalEndpoint: IC50 (µM)
Only the number, expressed in µM, is required.

Entry NS(=O)(=O)c1cccc2c1C(=O)C=C(Nc1cccnc1)C2=O [LY5] ; IC50 = 1.43

====

assay: PK in normal beagle dogs, IV and oral gavage; type: in vivo; details: male, plasma, Dog #1, PO w/ fast, 0.9 mg/kg
experimentalEndpoint: Cmax (nM)
Only the number, expressed in nM, is required.

Entry NS(=O)(=O)c1cccc2c1C(=O)C=C(Nc1cccnc1)C2=O [LY5] ; Cmax = 1280

====

System: ES-3 cells
Assay: Alamar Blue cell viability assay
Type: cell-based
Details: Homo sapiens; ES-3, 96 hours
Method: Sarcoma cell lines were seeded in 24-well plates in 1X RPMI medium containing 10% fetal bovine serum. Cells were then incubated with DMSO (control) or concentrations of LY5 ranging from 10 nM to 10 μM for 96 hrs. […] Fluorescence was then measured at an excitation/emissions wavelength of 570/590 nm and emission wavelength of 590 nm. Fig 2 Biologic activity of LY5 in sarcoma cell lines. […] Cell viability was determined using Alamar Blue staining. […]
experimentalEndpoint: pIC50
In plain terms, pIC50 is the concentration in mol/L turned into minus its base-10 logarithm.

The reported pIC50 value, ES-3 cells, for NS(=O)(=O)c1cccc2c1C(=O)C=C(Nc1cccnc1)C2=O [LY5] reads 5.47

====

experiment: PK in normal beagle dogs, oral capsules of LY5 powder; type: in vivo; conditions: male, plasma, Dog #1, 25 mg oral capsule, fasted
experimentalEndpoint: AUC(0-t) (µM·h)
Only the number, expressed in µM·h, is required.

Entry NS(=O)(=O)c1cccc2c1C(=O)C=C(Nc1cccnc1)C2=O ; AUC(0-t) = 2.62

====

assay: PK in normal beagle dogs, IV and oral gavage; type: in vivo; details: male, dog, plasma, po, 0.9 mg/kg, Dog #1, PO w/ fast (fasted male dog), read-out: F (oral bioavailability)
experimentalEndpoint: bioavailability (%)
Only the number, expressed in %, is required.

Entry NS(=O)(=O)c1cccc2c1C(=O)C=C(Nc1cccnc1)C2=O [LY5] ; bioavailability = 51.6

====

assay: PK in normal beagle dogs, IV and oral gavage; assay type: in vivo; settings: female, dog, plasma, po, 0.9 mg/kg, Dog #2, PO w/ fast (fasted female dog), read-out: F (oral bioavailability)
experimentalEndpoint: bioavailability (%)
Only the number, expressed in %, is required.

Entry NS(=O)(=O)c1cccc2c1C(=O)C=C(Nc1cccnc1)C2=O [LY5] ; bioavailability = 44.3

====

assay: PK in normal beagle dogs, IV and oral gavage; assay type: in vivo; conditions: male, plasma, Dog #1, PO fed, 1.28 mg/kg
experimentalEndpoint: Cmax

Entry NS(=O)(=O)c1cccc2c1C(=O)C=C(Nc1cccnc1)C2=O ; Cmax = 206 nM

====

system: ES-6 cells; assay: Alamar Blue cell viability assay; type: cell-based; conditions: Homo sapiens; ES-6, 96 hours
experimentalEndpoint: pIC50
In plain terms, pIC50 is the concentration in mol/L turned into minus its base-10 logarithm.

Entry NS(=O)(=O)c1cccc2c1C(=O)C=C(Nc1cccnc1)C2=O [LY5] ; pIC50 = 5.30

====

test: PK in normal beagle dogs, oral capsules of LY5 powder; type: in vivo; conditions: plasma, Dog #2, 25 mg oral capsule, fasted
experimentalEndpoint: Cmax (nM)
Only the number, expressed in nM, is required.

Entry NS(=O)(=O)c1cccc2c1C(=O)C=C(Nc1cccnc1)C2=O ; Cmax = 516

====

Assay: PK in normal beagle dogs, oral capsules of LY5 powder
Type: in vivo
Details: male, plasma, Dog #1, 50mg oral capsule, fasted
Method: LY5 was evaluated in two normal purpose-bred beagle dogs (female 8.8 kg; male 11.2 kg) receiving a single dose of 1mg/kg LY5 IV then orally by gavage 7 days later to establish the PK profile and assess the spectrum of clinical toxicities associated with LY5 administration. The oral dosing was repeated in the fed and fasted state. The starting dose was determined based on allometric scaling from the maximal tolerated dose studies performed in mice. […]
experimentalEndpoint: Tmax

Entry NS(=O)(=O)c1cccc2c1C(=O)C=C(Nc1cccnc1)C2=O [LY5] ; Tmax = 3 h

====

assay: Plasma PK profile in mice; format: in vivo; conditions: ICR, mouse, 5 mg/kg PO
experimentalEndpoint: Cmax (nM)
Only the number, expressed in nM, is required.

Entry NS(=O)(=O)c1cccc2c1C(=O)C=C(Nc1cccnc1)C2=O ; Cmax = 509

====

experiment: Plasma PK profile in mice; assay type: in vivo; conditions: ICR, mouse, 5 mg/kg IV, read-out: AUC inf-obs
experimentalEndpoint: AUC(0-inf) (µM·h)
Only the number, expressed in µM·h, is required.

Entry NS(=O)(=O)c1cccc2c1C(=O)C=C(Nc1cccnc1)C2=O ; AUC(0-inf) = 1.14

====

assay: PK in normal beagle dogs, IV and oral gavage; type: in vivo; settings: female, plasma, Dog #2, IV, 0.97 mg/kg
experimentalEndpoint: Cmax

Entry NS(=O)(=O)c1cccc2c1C(=O)C=C(Nc1cccnc1)C2=O [LY5] ; Cmax = 3.22 µM
